assay: Drug uptake in Wistar rat liver assessed as hepatic extraction ratio at 2.5 uM after 1 to 60 mins; type: ADME, tissue-based; settings: read-out: ERH
Reported metric: hepatic extraction ratio at 2.5 µM

INSERT INTO results (line_notation, observed_result) VALUES
  ('C[C@@H]1CC[C@@]2(OC1)O[C@H]1C[C@H]3[C@@H]4CC=C5C[C@@H](O[C@@H]6O[C@H](CO)[C@@H](O[C@@H]7O[C@@H](C)[C@H](O)[C@@H](O)[C@H]7O)[C@H](O)[C@H]6O[C@@H]6O[C@@H](C)[C@H](O)[C@@H](O)[C@H]6O)CC[C@]5(C)[C@H]4CC[C@]3(C)[C@H]1[C@@H]2C', 0.15);
